- Assayed System: T1, biotin-peptide TSSMEDYVNF (human)
- T1 peptide: Biotin-TSSMEDYVNF
- Assay Explanation: ELISA biotin-peptide; scFv 10 ug/mL; repII
- Method: The peptides were synthesized naked or with a N-terminal Biotin modification with a purity of >98%. All four scFvs were verified by ELISA that can be detected with anti-His antibodies. ELISA was performed for scFv-peptide binding validation. Briefly, naked peptides were coated (50 μg/mL) in 0.58M carbonate-bicarbonate buffer pH9.5, 100 μL/well, 4° C. […]
Where no end group is shown, it is not given here. The star is where a group is joined. Biotin = O=C1N[C@H]2[C@H](CS[C@H]2CCCCC(=O)*)N1
Assay Metric: OD450 (OD)
Answer format: numeric, OD implied, no suffix.

Known OD450 results, listed for orientation:
Binder	Reported Value
CCR9_HUM2 scFv (humanized anti-CCR9 scFv, SEQ ID NO: 17 with C-terminal 6xHis tag) (scFv) scFv: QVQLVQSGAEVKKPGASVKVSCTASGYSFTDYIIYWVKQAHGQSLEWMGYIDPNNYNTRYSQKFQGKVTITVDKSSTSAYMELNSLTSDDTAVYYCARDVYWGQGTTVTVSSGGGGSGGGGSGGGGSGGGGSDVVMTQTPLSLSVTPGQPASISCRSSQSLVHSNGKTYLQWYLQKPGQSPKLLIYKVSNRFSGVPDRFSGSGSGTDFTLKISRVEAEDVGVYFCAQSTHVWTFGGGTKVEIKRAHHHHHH	1.92
Comparative antibody 2 (Comp-2) scFv, 243LO326 (VH SEQ ID NO: 51 and VL SEQ ID NO: 52 of WO 2022/195028 A2), His-tagged (scFv) scFv: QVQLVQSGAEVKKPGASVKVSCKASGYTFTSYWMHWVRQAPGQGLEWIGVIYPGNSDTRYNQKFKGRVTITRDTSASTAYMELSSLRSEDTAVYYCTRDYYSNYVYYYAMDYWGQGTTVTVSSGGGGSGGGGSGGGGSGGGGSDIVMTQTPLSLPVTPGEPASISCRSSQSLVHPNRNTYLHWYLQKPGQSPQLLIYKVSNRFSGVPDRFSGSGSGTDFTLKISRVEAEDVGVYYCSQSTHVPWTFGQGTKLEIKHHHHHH	0.06
Comparative antibody 1 (Comp-1) scFv, SEQ ID NO: 10 from WO2023/037125 A1, His-tagged (scFv) scFv: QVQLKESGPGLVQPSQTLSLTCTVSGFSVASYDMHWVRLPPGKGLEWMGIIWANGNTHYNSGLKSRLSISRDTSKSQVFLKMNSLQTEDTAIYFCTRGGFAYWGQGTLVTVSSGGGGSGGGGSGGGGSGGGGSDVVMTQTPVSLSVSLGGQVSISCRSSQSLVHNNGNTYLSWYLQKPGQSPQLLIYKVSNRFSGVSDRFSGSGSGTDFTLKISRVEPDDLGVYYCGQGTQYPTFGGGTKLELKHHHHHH	0.08

# evaluate next
// query Identify measured OD450 associated with Comparative antibody 3 (Comp-3) scFv, SR_92R (Somovilla-Crespo et al. 2018), His-tagged (scFv) scFv: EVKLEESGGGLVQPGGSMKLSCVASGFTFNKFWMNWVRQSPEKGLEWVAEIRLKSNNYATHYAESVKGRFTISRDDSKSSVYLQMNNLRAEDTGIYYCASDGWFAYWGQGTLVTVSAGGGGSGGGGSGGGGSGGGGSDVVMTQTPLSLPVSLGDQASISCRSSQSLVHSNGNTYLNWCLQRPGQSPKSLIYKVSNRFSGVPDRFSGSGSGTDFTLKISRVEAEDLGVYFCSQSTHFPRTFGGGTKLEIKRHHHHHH
// result 0.12
